The reported measurements were obtained from ChEMBL document CHEMBL3763052.

- assay-explanation: Ratio of drug uptake in brain to plasma of Sprague-Dawley rat at 10 mg/kg, po after 2 hrs by LC-MS/MS analysis
- Assay type: ADME, organism-based
- test-settings: read-out: BPR
measured-metric: Kp at 2 h
Please give only the number in your answer, with no unit.

# input State the recorded Kp at 2 h for this entry: COc1ccccc1N1CCN(CCCCCC(=O)n2c3ccccc3c3ccccc32)CC1.Cl
# output 25.5

* * *

- assay-explanation: Cmax in Sprague-Dawley rat at 10 mg/kg, po by LC-MS/MS analysis
- Type: ADME, organism-based
- Set-up: dose 10 mg/kg, route oral
- test-settings: in vivo
measured-metric: Cmax (ng/mL)
Kindly provide the numeric value in ng/mL only, without the unit symbol.

# input State the recorded Cmax for this entry: COc1ccccc1N1CCN(CCCCCC(=O)n2c3ccccc3c3ccccc32)CC1.Cl
# output 160

* * *

- assay-explanation: Drug uptake in Sprague-Dawley rat brain at 10 mg/kg, iv after 2 hrs by LC-MS/MS analysis
- Type: ADME, organism-based
- test-settings: read-out: Drug uptake
measured-metric: concentration at 2 h (ng/mL)
Kindly provide the numeric value in ng/mL only, without the unit symbol.

# input State the recorded concentration at 2 h for this entry: COc1ccccc1N1CCN(CCCCCC(=O)n2c3ccccc3c3ccccc32)CC1.Cl
# output 268

* * *

- assay-explanation: Tmax in Sprague-Dawley rat at 10 mg/kg, po by LC-MS/MS analysis
- Format: ADME, organism-based
- test-settings: in vivo
measured-metric: Tmax (h)
Kindly provide the numeric value in h only, without the unit symbol.

# input State the recorded Tmax for this entry: COc1ccccc1N1CCN(CCCCCC(=O)n2c3ccccc3c3ccccc32)CC1.Cl
# output 3.57

* * *

- assay-explanation: Clearance in Sprague-Dawley rat at 10 mg/kg, iv by LC-MS/MS analysis
- Format: ADME, organism-based
- test-settings: in vivo
measured-metric: clearance (mL/min/kg)
Kindly provide the numeric value in mL/min/kg only, without the unit symbol.

# input State the recorded clearance for this entry: COc1ccccc1N1CCN(CCCCCC(=O)n2c3ccccc3c3ccccc32)CC1.Cl
# output 114

* * *

- assay-explanation: AUC (0 to last) in Sprague-Dawley rat at 10 mg/kg, po by LC-MS/MS analysis
- Format: ADME, organism-based
- Design: dose 10 mg/kg, time 0 - last, route oral
- test-settings: in vivo
measured-metric: AUC(0-t) (ng·h/mL)
Kindly provide the numeric value in ng·h/mL only, without the unit symbol.

# input State the recorded AUC(0-t) for this entry: COc1ccccc1N1CCN(CCCCCC(=O)n2c3ccccc3c3ccccc32)CC1.Cl
# output 561

* * *

- assay-explanation: Ratio of drug uptake in brain to plasma of Sprague-Dawley rat at 10 mg/kg, iv after 2 hrs by LC-MS/MS analysis
- Format: ADME, organism-based
- test-settings: read-out: BPR
measured-metric: Kp at 2 h
Please give only the number in your answer, with no unit.

# input State the recorded Kp at 2 h for this entry: COc1ccccc1N1CCN(CCCCCC(=O)n2c3ccccc3c3ccccc32)CC1.Cl
# output 1.23
